# target-of-assay: Presenilin-2-comprised γ-secretase (Homo sapiens, UniProt P49810)
# Construct: expressed in transfected cells; host or cells: mouse fibroblasts derived from PS1/PS2 double knockout cells, pCF vector
# procedure-details: Aβ1-x ELISA in Presenilin-2 transfected PS1/PS2 double knockout mouse fibroblasts
# Format: cell-based
# experimental-parameters: column A; compound concentration of 10 uM; estimated from the inhibition curve; read-out: PS2 percentage inhibition, column A
Assign inhibition at 10 µM to each entry below.
Give bare numbers, in %.

These solved cases illustrate the format of a correct answer.
compound	value-units	inhibition at 10 µM
COc1ccc(CN(C2CCCCNC2=O)S(=O)(=O)c2ccc(Cl)cc2)cc1OC (stereo not shown)	%	45
COc1ccc(CN([C@@H](CO)CC(C)C)S(=O)(=O)c2ccc(Cl)cc2)cc1OC	%	47
O=C1NCCCC[C@H]1N(CCCN1C(=O)c2ccccc2C1=O)S(=O)(=O)c1ccc(Cl)cc1	%	28
CCCCN([C@@H]1CCCCNC1=O)S(=O)(=O)c1ccc(Cl)cc1	%	26
O=C1NCCCC[C@H]1N(Cc1cnc(N2CCCCC2)s1)S(=O)(=O)c1ccc(Cl)cc1	%	47

Give inhibition at 10 µM for each listed item.
1. C/C(=C\c1ccccc1)CN([C@@H]1CCNC1=O)S(=O)(=O)c1ccc(Cl)cc1
2. O=C1NCCCC[C@H]1N(Cc1ccc(Br)cc1)S(=O)(=O)CC(F)(F)F

1: 1; 2: 20

---

# target-of-assay: Presenilin-1-comprised γ-secretase (Homo sapiens, UniProt P49768)
# Construct: expressed in transfected cells; host or cells: mouse fibroblasts derived from PS1/PS2 double knockout cells, pCF vector
# procedure-details: Aβ1-x ELISA in Presenilin-1 transfected PS1/PS2 double knockout mouse fibroblasts
# Type: cell-based
# experimental-parameters: column A; Aβ1-x, Presenilin-1 transfected cells, overnight; read-out: PS1 EC50 (nM) A
reported-endpoint: log10 of EC50 (log10 of the value in nM)
A difference of one corresponds to tenfold EC50; all values are log10 with EC50 in nM.

These solved cases illustrate the format of a correct answer.
compound	log10 of EC50
CCC(C)N(C(C)CC)S(=O)(=O)c1ccc(Cl)nc1 (stereo not drawn)	3.14
COc1ccc(CN(C2CC(C)CCC2C)S(=O)(=O)c2ccc(Cl)cc2)cc1 (stereo not drawn)	2.13
CCS(=O)(=O)CC[C@@H](C)N(c1cc(Cl)ccc1Cl)S(=O)(=O)c1ccc(Cl)cc1	2.18
O=C1NCCCC[C@H]1N(Cc1cc2ccccc2o1)S(=O)(=O)c1ccc(Cl)cc1	1.48
C[C@H](NC(=O)c1ccc(CN([C@@H]2CCCCNC2=O)S(=O)(=O)c2ccc(Cl)cc2)cc1)c1ccccc1	2.16

Give log10 of EC50 for each listed item.
1. O=C1NCCCC[C@H]1N(Cc1ccc(Br)cc1)S(=O)(=O)c1ccc(Cl)nc1
2. Cn1nnc2cc(CN([C@@H]3CCCCNC3=O)S(=O)(=O)c3ccc(Cl)s3)ccc21
3. O=C1NCCCC[C@H]1N(Cc1ccc(-c2nccs2)cc1)S(=O)(=O)c1ccc(Cl)cc1
4. C[C@H](c1ccc(F)cc1CCCC(=O)O)N(c1cc(F)ccc1F)S(=O)(=O)c1ccc(Cl)cc1 [reference compound]

1: 1.96; 2: 2.09; 3: 1.48; 4: 1.32

---

# target-of-assay: Presenilin-2-comprised γ-secretase (Homo sapiens)
# Construct: expressed in transfected cells; host or cells: mouse fibroblasts derived from PS1/PS2 double knockout cells, pCF vector
# procedure-details: Aβ1-x ELISA in Presenilin-2 transfected PS1/PS2 double knockout mouse fibroblasts
# Format: cell-based
# experimental-parameters: column A; Aβ1-x, Presenilin-2 transfected cells, overnight; read-out: PS2 EC50* (nM) A
reported-endpoint: log10(EC50) (log10 of the value in nM)
A difference of one corresponds to tenfold EC50; all values are log10 with EC50 in nM.

These solved cases illustrate the format of a correct answer.
molecule	endpoint-value
COc1ccc(CN([C@@H]2CCCCNC2=O)S(=O)(=O)c2ccc(Cl)cc2)cc1OC	3.11
C[C@H](NC(=O)[C@@H](O)c1cc(F)cc(F)c1)C(=O)N[C@H](C(=O)NCC1CN(c2ccccc2)CCO1)c1ccccc1 (stereo partly drawn)	1.65
O=C(NCc1ccccc1)c1ccc(CN([C@@H]2CCCCNC2=O)S(=O)(=O)c2ccc(Cl)cc2)cc1	1.48
O=C1NCCCC[C@H]1N(Cc1ccc2nccnc2c1)S(=O)(=O)c1ccc(Cl)cc1	3.15
O=C1NCCCC[C@H]1N(Cc1cc2ccccc2o1)S(=O)(=O)c1ccc(Cl)cc1	3.38

Give log10(EC50) for each listed item.
1. O=C1NCCCC[C@H]1N(Cc1ccc2snnc2c1)S(=O)(=O)c1ccc(Cl)cc1
2. O=C1NCCCC[C@H]1N(Cc1ccc(-c2nccs2)cc1)S(=O)(=O)c1ccc(Cl)cc1
3. CCS(=O)(=O)CC[C@@H](C)N(c1cc(Cl)ccc1Cl)S(=O)(=O)c1ccc(Cl)cc1
4. Cn1nnc2cc(CN([C@@H]3CCCCNC3=O)S(=O)(=O)c3ccc(Cl)s3)ccc21
5. C[C@@H](NC(=O)c1ccc(CN([C@@H]2CCCCNC2=O)S(=O)(=O)c2ccc(Cl)cc2)cc1)c1ccccc1
6. O=C1NCCCC[C@H]1N(Cc1ccc(Br)cc1)S(=O)(=O)c1ccc(Cl)nc1
7. Cn1nnc2cc(CN([C@@H]3CCCCNC3=O)S(=O)(=O)c3ccc(Cl)nc3)ccc21

1. 2.96
2. 2.77
3. 3.70
4. 3.81
5. 1.78
6. 3.20
7. 3.30

Give log10(EC50) for each listed item.
1. CCC(C)N(C(C)CC)S(=O)(=O)c1ccc(Cl)nc1 (stereo not drawn)
2. O=C1NCCCC[C@H]1N(Cc1ccc(-c2ncon2)cc1)S(=O)(=O)c1ccc(Cl)cc1
3. C[C@H](NC(=O)c1ccc(CN([C@@H]2CCCCNC2=O)S(=O)(=O)c2ccc(Cl)cc2)cc1)c1ccccc1
4. Cc1nc(-c2ccc(CN([C@@H]3CCCCNC3=O)S(=O)(=O)c3ccc(Cl)cc3)cc2)no1
5. O=C1NCCCC[C@H]1N(C/C=C/c1cccnc1)S(=O)(=O)c1ccc(Cl)cc1
6. COc1ccc(CN(C2CCCCC2C)S(=O)(=O)c2ccc(Cl)cc2)cc1OC (stereo not drawn)

1. 3.77
2. 2.24
3. 2.67
4. 2.88
5. 3.60
6. 2.78

Give log10(EC50) for each listed item.
1. COc1ccc(CN(C2CC(C)CCC2C)S(=O)(=O)c2ccc(Cl)cc2)cc1 (stereo not drawn)
2. O=C1NCCCC[C@H]1N(Cc1ccc(Br)cc1)S(=O)(=O)c1ccc(Cl)cc1
3. C[C@H](NC(=O)[C@@H](O)c1cc(F)cc(F)c1)C(=O)Nc1cc(C(C)(C)c2ccccc2)n[nH]1
4. Cn1nnc2cc(CN([C@@H]3CCCCNC3=O)S(=O)(=O)c3ccc(Cl)cc3)ccc21
5. C[C@H](c1ccc(F)cc1CCCC(=O)O)N(c1cc(F)ccc1F)S(=O)(=O)c1ccc(Cl)cc1 [reference compound]
6. CSc1ncccc1-c1nc(CN([C@@H]2CCCCNC2=O)S(=O)(=O)c2ccc(Cl)cc2)no1

3.48
3.28
1.41
2.77
2.35
3.32

---

# target-of-assay: Presenilin-2-comprised γ-secretase (Homo sapiens, UniProt P49810)
# Construct: expressed in transfected cells; host or cells: mouse fibroblasts derived from PS1/PS2 double knockout cells, pCF vector
# procedure-details: Aβ1-x ELISA in Presenilin-2 transfected PS1/PS2 double knockout mouse fibroblasts
# Format: cell-based
# experimental-parameters: column C; Aβ1-x, Presenilin-2 transfected cells, overnight; read-out: PS2 EC50* (nM) C
Sorting guide: entries reporting EC50 beneath 2000 nM go in the yes pile, the rest go in the no pile.

Worked examples, 4 compounds total:
O=C1NCCCC[C@H]1N(Cc1cc2ccccc2o1)S(=O)(=O)c1ccc(Cl)cc1 no
O=C1NCCCC[C@H]1N(Cc1ccc(-c2ncon2)cc1)S(=O)(=O)c1ccc(Cl)cc1 yes
COc1ccc(CN([C@@H]2CCCCNC2=O)S(=O)(=O)c2ccc(Cl)cc2)cc1OC no
O=C1NCCCC[C@H]1N(Cc1ccc(-c2nccs2)cc1)S(=O)(=O)c1ccc(Cl)cc1 yes

Consider the additional compound presented here.
In plain terms, does Cn1nnc2cc(CN([C@@H]3CCCCNC3=O)S(=O)(=O)c3ccc(Cl)s3)ccc21 come in under 2000 nM for EC50? no

---

# target-of-assay: Presenilin-1-comprised γ-secretase (Homo sapiens, UniProt P49768)
# Construct: expressed in transfected cells; host or cells: mouse fibroblasts derived from PS1/PS2 double knockout cells, pCF vector
# procedure-details: Aβ1-x ELISA in Presenilin-1 transfected PS1/PS2 double knockout mouse fibroblasts
# Format: cell-based
# experimental-parameters: column B; Aβ1-x, Presenilin-1 transfected cells, overnight; read-out: PS1 EC50 (nM) B
# Excerpt: A131-x represents any Aβ peptides longer than Aβ1-23, including Aβ38, Aβ40, and Aβ42, since Aβ1-x is defined operationally by an ELISA assay using proprietary antibody mAb 266 for capture and proprietary antibody mAb 3D6 for detection. […] Supernatants from positive clones were produced in large quantities for further purification of monoclonal antibodies. […] Cell culture medium is then removed from the transfected cell lines and analyzed for Aβ1-x levels by ELISA assay, as described in Example 1. […]
reported-endpoint: EC50 (nM)
Numbers only, in nM.

These solved cases illustrate the format of a correct answer.
compound	reported-endpoint	value-units	endpoint-value
Cn1nnc2cc(CN([C@@H]3CCCCNC3=O)S(=O)(=O)c3ccc(Cl)s3)ccc21	EC50	nM	87
O=C1NCCCC[C@H]1N(Cc1ccc2snnc2c1)S(=O)(=O)c1ccc(Cl)cc1	EC50	nM	23
O=C1NCCCC[C@H]1N(Cc1ccc(-c2nccs2)cc1)S(=O)(=O)c1ccc(Cl)cc1	EC50	nM	50
C[C@H](NC(=O)c1ccc(CN([C@@H]2CCCCNC2=O)S(=O)(=O)c2ccc(Cl)cc2)cc1)c1ccccc1	EC50	nM	139

Give EC50 for each listed item.
1. CSc1ncccc1-c1nc(CN([C@@H]2CCCCNC2=O)S(=O)(=O)c2ccc(Cl)cc2)no1
2. C[C@H](NC(=O)[C@@H](O)c1cc(F)cc(F)c1)C(=O)N[C@H](C(=O)NCC1CN(c2ccccc2)CCO1)c1ccccc1 (stereo partly drawn)
3. CCCCN([C@@H]1CCCCNC1=O)S(=O)(=O)c1ccc(Cl)cc1
4. Cc1nc(-c2ccc(CN([C@@H]3CCCCNC3=O)S(=O)(=O)c3ccc(Cl)cc3)cc2)no1
5. CCC(C)N(C(C)CC)S(=O)(=O)c1ccc(Cl)nc1 (stereo not drawn)

116
37
928
98
787
